# TEST NAME: Measurement of water content (Karl Fischer method)
# Assay type: physicochemical
# EXPERIMENTAL CONDITIONS: dried crystals, Karl Fischer
PROPERTY NAME: Water content (wt %)

MOLECULE	UNIT INFO	Water content
O=C(O)[C@H](O)c1ccccc1Cl [Example 2, (R)-2-chloromandelic acid]	wt %	0.049

(1) O=C(O)[C@H](O)c1ccccc1Cl [Example 1, (R)-2-chloromandelic acid]
(2) O=C(O)[C@H](O)c1ccccc1Cl [Example 6, (R)-2-chloromandelic acid]
Input: Which record would sort first by descending Water content, 1 or 2 ? Your answer should be the label attached to the chosen record.
Output: 2
(2: 0.080 wt %, 1: 0.046 wt %)

(1) O=C(O)[C@H](O)c1ccccc1Cl [Example 3, (R)-2-chloromandelic acid]
(2) O=C(O)[C@H](O)c1ccccc1Cl [compound 1, (R)-2-chloromandelic acid, reference compound]
(3) O=C(O)[C@H](O)c1ccccc1Cl [compound 2, (R)-2-chloromandelic acid, reference compound]
Input: Arrange items by their Water content values in increasing order. # format: label list in the order the request specifies
Output: 3, 1, 2

* * *

# TEST NAME: Measurement of filling (packing) density
# Format: physicochemical
# EXPERIMENTAL CONDITIONS: natural drop into 50 ml measuring cylinder
PROPERTY NAME: Filling density (g/mL)

Completed entries (count: 6):
COMPOUND	Filling density [g/mL]
O=C(O)[C@H](O)c1ccccc1Cl [Example 3, (R)-2-chloromandelic acid]	0.63
O=C(O)[C@H](O)c1ccccc1Cl [Example 4, (R)-2-chloromandelic acid]	0.68
O=C(O)[C@H](O)c1ccccc1Cl [Example 5, (R)-2-chloromandelic acid]	0.68
O=C(O)[C@H](O)c1ccccc1Cl [compound 1, (R)-2-chloromandelic acid, reference compound]	0.68
O=C(O)[C@H](O)c1ccccc1Cl [Example 1, (R)-2-chloromandelic acid]	0.65
O=C(O)[C@H](O)c1ccccc1Cl [Example 2, (R)-2-chloromandelic acid]	0.63

(I) O=C(O)[C@H](O)c1ccccc1Cl [Example 6, (R)-2-chloromandelic acid]
(II) O=C(O)[C@H](O)c1ccccc1Cl [compound 2, (R)-2-chloromandelic acid, reference compound]
Input: Which record would sort first by descending Filling density, I or II ? Your answer should be the label attached to the chosen record.
Output: I
(I: 0.64 g/mL, II: 0.29 g/mL)

* * *

# TEST NAME: Measurement of particle size distribution (sieving)
# Format: physicochemical
# EXPERIMENTAL CONDITIONS: sieve fraction <300 μm
PROPERTY NAME: Particle size distribution <300 μm (weight %)

MOLECULE	Particle size distribution <300 μm / weight %
O=C(O)[C@H](O)c1ccccc1Cl [Example 5, (R)-2-chloromandelic acid]	18.4
O=C(O)[C@H](O)c1ccccc1Cl [Example 4, (R)-2-chloromandelic acid]	17.3
O=C(O)[C@H](O)c1ccccc1Cl [Example 1, (R)-2-chloromandelic acid]	15.5
O=C(O)[C@H](O)c1ccccc1Cl [Example 2, (R)-2-chloromandelic acid]	18.2

* * *

# TEST NAME: Flowability (flow limit diameter through glass funnels)
# Format: physicochemical
# EXPERIMENTAL CONDITIONS: minimum funnel inside diameter without blockage in 5 tests, 15 g crystals
PROPERTY NAME: Flow limit diameter (mm)

Completed entries (count: 6):
COMPOUND	MEASURED
O=C(O)[C@H](O)c1ccccc1Cl [Example 5, (R)-2-chloromandelic acid]	5
O=C(O)[C@H](O)c1ccccc1Cl [Example 1, (R)-2-chloromandelic acid]	5
O=C(O)[C@H](O)c1ccccc1Cl [Example 3, (R)-2-chloromandelic acid]	5
O=C(O)[C@H](O)c1ccccc1Cl [Example 2, (R)-2-chloromandelic acid]	5
O=C(O)[C@H](O)c1ccccc1Cl [Example 4, (R)-2-chloromandelic acid]	5
O=C(O)[C@H](O)c1ccccc1Cl [compound 1, (R)-2-chloromandelic acid, reference compound]	9

(I) O=C(O)[C@H](O)c1ccccc1Cl [compound 2, (R)-2-chloromandelic acid, reference compound]
(II) O=C(O)[C@H](O)c1ccccc1Cl [Example 6, (R)-2-chloromandelic acid]
Input: # return whichever of I and II has the smaller Flow limit diameter Your answer should be the label attached to the chosen record.
Output: II

* * *

# TEST NAME: Measurement of particle size distribution (sieving)
# Format: physicochemical
# EXPERIMENTAL CONDITIONS: sieve fraction 300 to 1,000 μm
PROPERTY NAME: Particle size distribution 300 to 1,000 μm (weight %)

COMPOUND	UNIT INFO	MEASURED
O=C(O)[C@H](O)c1ccccc1Cl [compound 2, (R)-2-chloromandelic acid, reference compound]	weight %	71.3

(I) O=C(O)[C@H](O)c1ccccc1Cl [Example 3, (R)-2-chloromandelic acid]
(II) O=C(O)[C@H](O)c1ccccc1Cl [compound 1, (R)-2-chloromandelic acid, reference compound]
Input: Which record would sort first by descending Particle size distribution 300 to 1,000 μm, I or II ? Your answer should be the label attached to the chosen record.
Output: I
(I: 71.0 weight %, II: 46.5 weight %)

* * *

# TEST NAME: Appearance of crystals
# Format: physicochemical
# EXPERIMENTAL CONDITIONS: dried crystals
PROPERTY NAME: Appearance

Completed entries (count: 6):
COMPOUND	MEASURED
O=C(O)[C@H](O)c1ccccc1Cl [compound 1, (R)-2-chloromandelic acid, reference compound]	Fine
O=C(O)[C@H](O)c1ccccc1Cl [Example 3, (R)-2-chloromandelic acid]	Granular
O=C(O)[C@H](O)c1ccccc1Cl [compound 2, (R)-2-chloromandelic acid, reference compound]	Scale
O=C(O)[C@H](O)c1ccccc1Cl [Example 6, (R)-2-chloromandelic acid]	Granular
O=C(O)[C@H](O)c1ccccc1Cl [Example 4, (R)-2-chloromandelic acid]	Granular
O=C(O)[C@H](O)c1ccccc1Cl [Example 2, (R)-2-chloromandelic acid]	Granular

Input: Any idea what its Appearance is? The compound is O=C(O)[C@H](O)c1ccccc1Cl [Example 5, (R)-2-chloromandelic acid]
Output: Granular

Input: And what about the compound O=C(O)[C@H](O)c1ccccc1Cl [Example 1, (R)-2-chloromandelic acid] ?
Output: Granular

* * *

# TEST NAME: Measurement of particle size distribution (sieving)
# Assay type: physicochemical
# EXPERIMENTAL CONDITIONS: sieve fraction above 1,000 μm
PROPERTY NAME: Particle size distribution 1,000 μm< (weight %)

Completed entries (count: 5):
COMPOUND	Particle size distribution 1,000 μm< (weight %)
O=C(O)[C@H](O)c1ccccc1Cl [Example 6, (R)-2-chloromandelic acid]	9.7
O=C(O)[C@H](O)c1ccccc1Cl [Example 3, (R)-2-chloromandelic acid]	12.4
O=C(O)[C@H](O)c1ccccc1Cl [Example 1, (R)-2-chloromandelic acid]	11.0
O=C(O)[C@H](O)c1ccccc1Cl [Example 2, (R)-2-chloromandelic acid]	8.0
O=C(O)[C@H](O)c1ccccc1Cl [Example 5, (R)-2-chloromandelic acid]	8.5

(A) O=C(O)[C@H](O)c1ccccc1Cl [Example 4, (R)-2-chloromandelic acid]
(B) O=C(O)[C@H](O)c1ccccc1Cl [compound 2, (R)-2-chloromandelic acid, reference compound]
(C) O=C(O)[C@H](O)c1ccccc1Cl [compound 1, (R)-2-chloromandelic acid, reference compound]
Input: Rank entries according to their Particle size distribution 1,000 μm<, from the largest number down. # format: label list in the order the request specifies
Output: A, C, B
(A: 10.5 weight %, C: 7.3 weight %, B: 4.1 weight %)

* * *

# TEST NAME: Adhesiveness (crystals adhering to test tube wall)
# Assay type: physicochemical
# EXPERIMENTAL CONDITIONS: weight of adhering crystals / weight filled, test tube 16 mm
PROPERTY NAME: Adhesion rate (%)

Completed entries (count: 2):
COMPOUND	Adhesion rate / %
O=C(O)[C@H](O)c1ccccc1Cl [compound 1, (R)-2-chloromandelic acid, reference compound]	0.830
O=C(O)[C@H](O)c1ccccc1Cl [compound 2, (R)-2-chloromandelic acid, reference compound]	0.500

(A) O=C(O)[C@H](O)c1ccccc1Cl [Example 6, (R)-2-chloromandelic acid]
(B) O=C(O)[C@H](O)c1ccccc1Cl [Example 1, (R)-2-chloromandelic acid]
Input: # return whichever of A and B has the smaller Adhesion rate Your answer should be the label attached to the chosen record.
Output: B
(B: 0.057%, A: 0.140%)

* * *

# TEST NAME: Adhesiveness (crystals adhering to test tube wall)
# Assay type: physicochemical
# EXPERIMENTAL CONDITIONS: weight of adhering crystals / weight filled, test tube 16 mm
# Method: Chloromandelic acid crystals were naturally dropped in a dry test tube having an inside diameter of 16 mm, so that the height of the crystals became approximately 10 cm. Thereafter, the test tube containing chloromandelic acid crystals was slowly inverted, so that the test tube was completely turned upside down and the crystals were dropped. Thereafter, the weight of the test tube was measured, and the weight of chloromandelic acid crystals adhered to the inner wall of the test tube was obtained. […]
PROPERTY NAME: Adhesion rate (%)

COMPOUND	Adhesion rate / %
O=C(O)[C@H](O)c1ccccc1Cl [Example 4, (R)-2-chloromandelic acid]	0.110
O=C(O)[C@H](O)c1ccccc1Cl [Example 2, (R)-2-chloromandelic acid]	0.061

(a) O=C(O)[C@H](O)c1ccccc1Cl [Example 5, (R)-2-chloromandelic acid]
(b) O=C(O)[C@H](O)c1ccccc1Cl [Example 3, (R)-2-chloromandelic acid]
Input: Which record would sort first by descending Adhesion rate, a or b ? Your answer should be the label attached to the chosen record.
Output: a
(a: 0.130%, b: 0.058%)
